Each entry below lists one item and its recorded viability, T/C value.
Test system: NCI-H196 SCLC complex tumor spheroid viability
Assay: Anticancer human tumor NCI-H196 cell line growth inhibition;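 also: spheroids exposed to compounds for 7 days before readout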;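 as to viability, T/C: 100% = DMSO vehicle control wells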
Conditions: second compound 94.9 pM; first compound 10 µM; stronger effect = lower value
Number only, in %; omit the unit.

Field: example entries. Status: answers known.
# COMPOUND, UNIT, viability, T/C
measured = [
    ("COc1ccc([C@@H](O)c2cc(-c3ncnc4cc(N5CCOCC5)ccc34)c(F)cc2Cl)nn1 + COc1cc2c(cc1O)CCNC21CSC2c3c(OC(C)=O)c(C)c4c(c3C(COC1=O)N1C(O)C3Cc5cc(C)c(OC)c(O)c5C(C21)N3C)OCO4", "%", 46),
    ("CC1COCCN1c1cc(-c2ccnn2C)c2ccnc(-c3ccn[nH]3)c2n1 (centres undefined) + COc1cc2c(cc1O)CCNC21CSC2c3c(OC(C)=O)c(C)c4c(c3C(COC1=O)N1C(O)C3Cc5cc(C)c(OC)c(O)c5C(C21)N3C)OCO4", "%", 44.5),
    ("COc1cc(C)[nH]c(=O)c1CN1CCc2c(Cl)cc(C(OC)C3COC3)c(Cl)c2C1=O (centres undefined) + COc1cc2c(cc1O)CCNC21CSC2c3c(OC(C)=O)c(C)c4c(c3C(COC1=O)N1C(O)C3Cc5cc(C)c(OC)c(O)c5C(C21)N3C)OCO4", "%", 104),
]

Then there is this compound:
Sample Cc1cc(C)c(CNC(=O)c2cc(-c3ccc(CN4CCOCC4)cc3)cc3c2cnn3C2CCCC2)c(=O)[nH]1 + COc1cc2c(cc1O)CCNC21CSC2c3c(OC(C)=O)c(C)c4c(c3C(COC1=O)N1C(O)C3Cc5cc(C)c(OC)c(O)c5C(C21)N3C)OCO4 — what was its viability, T/C?
106

====

Tested on: NCI-H196 SCLC complex tumor spheroid viability
Experiment: Anticancer human tumor NCI-H196 cell line growth inhibition; active = viability on the fitted dose curve at most 10% of control; inactive = the rest;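 also: spheroids exposed to compounds for 7 days before readout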
Conditions: second compound 0.003 µM; first compound 0.316 µM
Outcome (select one): yes (1) for active, no (0) for inactive

# COMPOUND, ANSWER LABEL
measured = [
    ("COc1cc(C)[nH]c(=O)c1CN1CCc2c(Cl)cc(C(OC)C3COC3)c(Cl)c2C1=O (stereo not drawn) + CC[C@@]1(O)C(=O)OCc2c1cc1n(c2=O)Cc2cc3c(CN(C)C)c(O)ccc3nc2-1", "no (0)"),
]

Entry COc1ccc([C@@H](O)c2cc(-c3ncnc4cc(N5CCOCC5)ccc34)c(F)cc2Cl)nn1 + CC[C@@]1(O)C(=O)OCc2c1cc1n(c2=O)Cc2cc3c(CN(C)C)c(O)ccc3nc2-1 : call = ?
no (0)

Entry COc1cc(C)[nH]c(=O)c1CN1CCc2c(Cl)cc(C(OC)C3COC3)c(Cl)c2C1=O (stereo not drawn) + COc1cc2c(cc1O)CCNC21CSC2c3c(OC(C)=O)c(C)c4c(c3C(COC1=O)N1C(O)C3Cc5cc(C)c(OC)c(O)c5C(C21)N3C)OCO4 : call = ?
yes (1)

====

Test system: NCI-H196 SCLC complex tumor spheroid viability
Assay: Anticancer human tumor NCI-H196 cell line growth inhibition;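 also: spheroids exposed to compounds for 7 days before readout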;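 as to viability, T/C: 100% = DMSO vehicle control wells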
Settings: second compound 0.0949 µM; first compound 0.1 µM; stronger effect = lower value
VALUE KIND: viability, T/C (%)
Number only, in %; omit the unit.

Field: example entries. Status: answers known.
# COMPOUND, UNIT, viability, T/C
rows = [
    ("CC1COCCN1c1cc(-c2ccnn2C)c2ccnc(-c3ccn[nH]3)c2n1 (stereo unspecified) + CC[C@@]1(O)C(=O)OCc2c1cc1n(c2=O)Cc2cc3c(CN(C)C)c(O)ccc3nc2-1", "%", 61.5),
    ("[2H]c1nc(C)nc([2H])c1-c1cc(NC[C@@H](C)c2cccc3c(C(=O)NC)ccnc23)ncn1 + CC[C@@]1(O)C(=O)OCc2c1cc1n(c2=O)Cc2cc3c(CN(C)C)c(O)ccc3nc2-1", "%", 102),
]

Fill in the recorded viability, T/C for this compound, with NCI-H196 SCLC complex tumor spheroid viability as test system: CC(C)n1c(=O)n(C)c2cnc3cc(F)c(-c4ccc(OCCCN5CCCCC5)nc4)cc3c21 + CC[C@@]1(O)C(=O)OCc2c1cc1n(c2=O)Cc2cc3c(CN(C)C)c(O)ccc3nc2-1
113

Fill in the recorded viability, T/C for this compound, with NCI-H196 SCLC complex tumor spheroid viability as test system: COc1ccc([C@@H](O)c2cc(-c3ncnc4cc(N5CCOCC5)ccc34)c(F)cc2Cl)nn1 + CC[C@@]1(O)C(=O)OCc2c1cc1n(c2=O)Cc2cc3c(CN(C)C)c(O)ccc3nc2-1
102

Fill in the recorded viability, T/C for this compound, with NCI-H196 SCLC complex tumor spheroid viability as test system: COc1cc(C)[nH]c(=O)c1CN1CCc2c(Cl)cc(C(OC)C3COC3)c(Cl)c2C1=O (stereo unspecified) + CC[C@@]1(O)C(=O)OCc2c1cc1n(c2=O)Cc2cc3c(CN(C)C)c(O)ccc3nc2-1
109

Fill in the recorded viability, T/C for this compound, with NCI-H196 SCLC complex tumor spheroid viability as test system: Cc1cc(C)c(CNC(=O)c2cc(-c3ccc(CN4CCOCC4)cc3)cc3c2cnn3C2CCCC2)c(=O)[nH]1 + CC[C@@]1(O)C(=O)OCc2c1cc1n(c2=O)Cc2cc3c(CN(C)C)c(O)ccc3nc2-1
101

====

Test system: NCI-H196 SCLC complex tumor spheroid viability
Experiment: Anticancer human tumor NCI-H196 cell line growth inhibition;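 also: spheroids exposed to compounds for 7 days before readout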;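 as to viability, T/C: 100% = DMSO vehicle control wells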
Conditions: second compound 10 µM; first compound 0.1 µM; stronger effect = lower value
Each entry below lists one item and its recorded viability, T/C value.
Number only, in %; omit the unit.

# COMPOUND, viability, T/C (%)
measured = [
    ("COc1cc(C)[nH]c(=O)c1CN1CCc2c(Cl)cc(C(OC)C3COC3)c(Cl)c2C1=O (stereo unspecified) + Cn1nnc2c(C(N)=O)ncn2c1=O", 104),
    ("CC(C)n1c(=O)n(C)c2cnc3cc(F)c(-c4ccc(OCCCN5CCCCC5)nc4)cc3c21 + Cn1nnc2c(C(N)=O)ncn2c1=O", 97.7),
    ("Cc1cc(C)c(CNC(=O)c2cc(-c3ccc(CN4CCOCC4)cc3)cc3c2cnn3C2CCCC2)c(=O)[nH]1 + Cn1nnc2c(C(N)=O)ncn2c1=O", 97.8),
    ("COc1ccc([C@@H](O)c2cc(-c3ncnc4cc(N5CCOCC5)ccc34)c(F)cc2Cl)nn1 + Cn1nnc2c(C(N)=O)ncn2c1=O", 97.3),
    ("CC1COCCN1c1cc(-c2ccnn2C)c2ccnc(-c3ccn[nH]3)c2n1 (stereo unspecified) + Cn1nnc2c(C(N)=O)ncn2c1=O", 85.4),
]

Then there is this compound:
Fill in the recorded viability, T/C for this compound, with NCI-H196 SCLC complex tumor spheroid viability as test system: [2H]c1nc(C)nc([2H])c1-c1cc(NC[C@@H](C)c2cccc3c(C(=O)NC)ccnc23)ncn1 + Cn1nnc2c(C(N)=O)ncn2c1=O
99.8

====

Each entry below lists one item and its recorded pIC50 value.
System: NCI-H196 SCLC complex tumor spheroid viability
Test: Anticancer human tumor NCI-H196 cell line growth inhibition;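 also: spheroids exposed to compounds for 7 days before readout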
Settings: curve of first compound; second compound 0.00949 µM
pIC50: −log10 of the molar value.

# COMPOUND, MEASUREMENT TARGET, pIC50
rows = [
    ("CC1COCCN1c1cc(-c2ccnn2C)c2ccnc(-c3ccn[nH]3)c2n1 (stereo not given) + CC[C@@]1(O)C(=O)OCc2c1cc1n(c2=O)Cc2cc3c(CN(C)C)c(O)ccc3nc2-1", "NCI-H196 SCLC complex tumor spheroid viability", 5.65),
]

Then there is this compound:
Sample CNCc1ccc(-c2cc(-c3nc(-c4ccc(S(=O)(=O)C(C)C)cc4)cnc3N)on2)cc1 + CC[C@@]1(O)C(=O)OCc2c1cc1n(c2=O)Cc2cc3c(CN(C)C)c(O)ccc3nc2-1 — what was its pIC50?
< 5.52

====

Tested on: NCI-H196 SCLC complex tumor spheroid viability
Assay: Anticancer human tumor NCI-H196 cell line growth inhibition;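 also: spheroids exposed to compounds for 7 days before readout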;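 as to viability, T/C: 100% = DMSO vehicle control wells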
Conditions: second compound 31.6 µM; first compound 10 µM; stronger effect = lower value
VALUE KIND: viability, T/C (%)
Number only, in %; omit the unit.

Field: example entries. Status: answers known.
# MOLECULE, MEASUREMENT TARGET, viability, T/C, %
records = [
    ("COc1ccc([C@@H](O)c2cc(-c3ncnc4cc(N5CCOCC5)ccc34)c(F)cc2Cl)nn1 + Cn1nnc2c(C(N)=O)ncn2c1=O", "NCI-H196 SCLC complex tumor spheroid viability", 59.3),
    ("CC1COCCN1c1cc(-c2ccnn2C)c2ccnc(-c3ccn[nH]3)c2n1 (stereo unspecified) + Cn1nnc2c(C(N)=O)ncn2c1=O", "NCI-H196 SCLC complex tumor spheroid viability", 46.6),
    ("[2H]c1nc(C)nc([2H])c1-c1cc(NC[C@@H](C)c2cccc3c(C(=O)NC)ccnc23)ncn1 + Cn1nnc2c(C(N)=O)ncn2c1=O", "NCI-H196 SCLC complex tumor spheroid viability", 118),
    ("COc1cc(C)[nH]c(=O)c1CN1CCc2c(Cl)cc(C(OC)C3COC3)c(Cl)c2C1=O (stereo unspecified) + Cn1nnc2c(C(N)=O)ncn2c1=O", "NCI-H196 SCLC complex tumor spheroid viability", 105),
    ("Cc1cc(C)c(CNC(=O)c2cc(-c3ccc(CN4CCOCC4)cc3)cc3c2cnn3C2CCCC2)c(=O)[nH]1 + Cn1nnc2c(C(N)=O)ncn2c1=O", "NCI-H196 SCLC complex tumor spheroid viability", 94.7),
]

Then there is this molecule:
Fill in the recorded viability, T/C for this molecule, with NCI-H196 SCLC complex tumor spheroid viability as test system: CC(C)n1c(=O)n(C)c2cnc3cc(F)c(-c4ccc(OCCCN5CCCCC5)nc4)cc3c21 + Cn1nnc2c(C(N)=O)ncn2c1=O
90.8
